The measurements presented in this section are drawn from patent US20240182536A1.

# system: T1, human IL-18 binding protein (IL-18BP) (human, UniProt O95998 31-194)
# T1 sequence (looked up): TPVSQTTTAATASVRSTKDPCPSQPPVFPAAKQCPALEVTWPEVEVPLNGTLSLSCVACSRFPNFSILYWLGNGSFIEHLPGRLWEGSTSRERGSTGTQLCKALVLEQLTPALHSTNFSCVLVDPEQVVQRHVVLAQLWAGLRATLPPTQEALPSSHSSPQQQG
# experimental-protocol: cell-based or functional assay
readout-name: HEK-Blue Ec50 (pM), +IL-18BP (50 nM)
Please give a number only; it is taken to be in pM.

Known results for binders:
>>> observed_result("IL-18 variant G3R, K53S (ligand) YFRKLESKLSVIRNLNDQVLFIDQGNRPLFEDMTDSDMRDNAPRTIFIISMYSDSQPRGMAVTISVKSEKISTLSSENKIISFKEMNPPDNIKDTKSDIIFFQRSVPGHDNKMQFESSSYEGYFLASEKERDLFKLILKKEDELGDRSIMFTVQNED")
1.84
>>> observed_result("IL-18 variant G3F, K53S (ligand) YFFKLESKLSVIRNLNDQVLFIDQGNRPLFEDMTDSDMRDNAPRTIFIISMYSDSQPRGMAVTISVKSEKISTLSSENKIISFKEMNPPDNIKDTKSDIIFFQRSVPGHDNKMQFESSSYEGYFLASEKERDLFKLILKKEDELGDRSIMFTVQNED")
5.88

Req: Please report HEK-Blue Ec50 (pM), +IL-18BP (50 nM) for the following binder: IL-18 variant G3T, K53S (ligand) YFTKLESKLSVIRNLNDQVLFIDQGNRPLFEDMTDSDMRDNAPRTIFIISMYSDSQPRGMAVTISVKSEKISTLSSENKIISFKEMNPPDNIKDTKSDIIFFQRSVPGHDNKMQFESSSYEGYFLASEKERDLFKLILKKEDELGDRSIMFTVQNED
Resp: 5.18
